Values were extracted from patent US20210214461A1.

Target: pre-existing anti-scFv903 antibodies in human serum H116 (human)
Assay: competition ADA bridging ELISA
READOUT_KIND: signal change in competition ELISA (% reduction in OD) (%)
Write the value in % as a bare number.

[ask] Form field: reported signal change in competition ELISA (% reduction in OD) of scFv 961 (scFv) scFv: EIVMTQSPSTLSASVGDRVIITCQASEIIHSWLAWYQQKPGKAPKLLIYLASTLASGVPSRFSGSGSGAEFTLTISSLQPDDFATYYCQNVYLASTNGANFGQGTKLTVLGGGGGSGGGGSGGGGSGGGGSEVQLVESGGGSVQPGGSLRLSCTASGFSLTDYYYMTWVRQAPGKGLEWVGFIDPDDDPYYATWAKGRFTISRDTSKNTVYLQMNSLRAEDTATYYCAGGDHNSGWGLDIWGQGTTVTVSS
[reply] -33

[ask] Quick one: signal change in competition ELISA (% reduction in OD) of scFv105 (scFv) scFv: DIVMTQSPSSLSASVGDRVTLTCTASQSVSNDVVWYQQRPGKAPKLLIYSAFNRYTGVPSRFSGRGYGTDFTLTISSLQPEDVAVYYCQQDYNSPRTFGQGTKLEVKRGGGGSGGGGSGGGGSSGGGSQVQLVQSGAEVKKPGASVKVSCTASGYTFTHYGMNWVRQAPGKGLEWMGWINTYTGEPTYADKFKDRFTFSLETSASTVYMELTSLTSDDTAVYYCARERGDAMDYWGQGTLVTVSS ?
[reply] -43

[ask] What signal change in competition ELISA (% reduction in OD) value was documented for this binder, scFv 791 (scFv) scFv: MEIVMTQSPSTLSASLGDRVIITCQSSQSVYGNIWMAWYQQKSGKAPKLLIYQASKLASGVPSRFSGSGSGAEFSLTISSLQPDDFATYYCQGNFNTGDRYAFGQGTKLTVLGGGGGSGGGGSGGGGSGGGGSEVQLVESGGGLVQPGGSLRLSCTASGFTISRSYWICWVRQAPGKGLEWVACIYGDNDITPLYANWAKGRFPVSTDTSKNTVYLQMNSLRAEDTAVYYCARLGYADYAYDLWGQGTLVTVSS ?
[reply] -97

[ask] # get_value(readout='signal change in competition ELISA (% reduction in OD)', item= scFv 903 (scFv) scFv: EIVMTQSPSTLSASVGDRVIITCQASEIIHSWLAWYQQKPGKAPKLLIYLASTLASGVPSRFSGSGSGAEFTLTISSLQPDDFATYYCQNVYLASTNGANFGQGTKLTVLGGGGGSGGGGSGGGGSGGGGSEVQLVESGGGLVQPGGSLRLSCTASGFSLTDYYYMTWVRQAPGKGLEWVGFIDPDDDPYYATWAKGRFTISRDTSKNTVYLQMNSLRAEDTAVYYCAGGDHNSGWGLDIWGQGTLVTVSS )
[reply] -98
